# testName: Chiral plasma pharmacokinetics of bupropion and hydroxybupropion
# testConditions: both, human, plasma, oral, t1/2 S/ S,S, bupropion+MDMA (M), CYP2B6 genotype normal, plasma

molecule	half-life
C[C@H](NC(C)(C)C)C(=O)c1cccc(Cl)c1 [S-bupropion, bupropion]	7.5 h

###

# testName: Chiral plasma pharmacokinetics of MDMA and its phase I and II metabolites after controlled MDMA administration
# Format: in vivo, human
# testConditions: placebo-pretreated EMs
# Procedure: Blood plasma samples were analyzed non-stereoselectively as reported previously and reanalyzed for the present report using liquid chromatography-mass spectrometry/mass spectrometry after chiral derivatization with Marfey’s reagent as described previously. The method was fully validated, including selectivity, recovery, matrix effects, bias and imprecision, stability, and limit of quantification.
Counter-ions that a name gives are not always drawn.
Binary classification by metabolite/MDMA ratio, mean constant (after approximately 2 h), with 0.4 as an inclusive lower bound for Criterion met; all other cases are Criterion not met.

molecule	labelClass
CN[C@@H](C)Cc1ccc(O)c(OS(=O)(=O)O)c1 [S-DHMA 3-sulfate]	Criterion met
CN[C@H](C)Cc1ccc(OS(=O)(=O)O)c(O)c1 [R-DHMA 4-sulfate]	Criterion not met
CN[C@@H](C)Cc1ccc(OS(=O)(=O)O)c(O)c1 [S-DHMA 4-sulfate]	Criterion not met
CN[C@H](C)Cc1ccc(O)c(OS(=O)(=O)O)c1 [R-DHMA 3-sulfate]	Criterion not met
CN[C@@H](C)Cc1ccc(OS(=O)(=O)O)c(OC)c1 [S-HMMA sulfate]	Criterion met
CN[C@H](C)Cc1ccc(OS(=O)(=O)O)c(OC)c1 [R-HMMA sulfate]	Criterion met
CNC(C)Cc1ccc(OC2OC(C(=O)O)C(O)C(O)C2O)c(OC)c1 (centres unmarked) [S-HMMA glucuronide]	Criterion met

###

# testName: Chiral plasma pharmacokinetics of MDMA and its phase I and II metabolites after controlled MDMA administration
# Format: in vivo, human
# testConditions: both sexes, human, plasma, oral, bupropion+MDMA (125 mg), CYP2D6 EM (EM/Bup), n=13, plasma; read-out: tmax R
Structures can show the parent of a compound that is named as a salt.
Binary classification by Tmax, with 4 h as an inclusive lower bound for 1; all other cases are -1.

compound	labelClass
CN[C@H](C)Cc1ccc2c(c1)OCO2	-1
CNC(C)Cc1ccc(OC2OC(C(=O)O)C(O)C(O)C2O)c(OC)c1 (stereo not drawn) [R-HMMA glucuronide]	1
CC(N)Cc1ccc2c(c1)OCO2 (stereo not drawn)	1
CN[C@H](C)Cc1ccc(O)c(OS(=O)(=O)O)c1 [R-DHMA 3-sulfate]	-1
CN[C@H](C)Cc1ccc(OS(=O)(=O)O)c(O)c1 [R-DHMA 4-sulfate]	-1
CN[C@H](C)Cc1ccc(OS(=O)(=O)O)c(OC)c1 [R-HMMA sulfate]	1

###

# testName: Chiral plasma pharmacokinetics of bupropion and hydroxybupropion
# testConditions: both, human, plasma, oral, 300 mg, t1/2 S/ S,S, bupropion+placebo (P), CYP2B6 genotype reduced, plasma

compound	half-life [h]
C[C@H](NC(C)(C)C)C(=O)c1cccc(Cl)c1 [S-bupropion, bupropion]	7.8

###

# testName: Chiral plasma pharmacokinetics of MDMA and its phase I and II metabolites after controlled MDMA administration
# Assay type: in vivo, human
# testConditions: both sexes, human, plasma, oral, bupropion+MDMA (125 mg), CYP2D6 EM (EM/Bup), n=13, plasma; read-out: AUC0-24h S
Counter-ions that a name gives are not always drawn.
Below is a list of entries, each paired with its recorded AUC(0-t) value.

compound	AUC(0-t) [µM·h]
CN[C@@H](C)Cc1ccc(O)c(OS(=O)(=O)O)c1 [S-DHMA 3-sulfate]	2.8
CN[C@@H](C)Cc1ccc2c(c1)OCO2 [S-MDMA, 3,4-methylenedioxymethamphetamine]	6.8
CC(N)Cc1ccc2c(c1)OCO2 (stereo not drawn) [S-MDA, 3,4-methylenedioxyamphetamine]	0.49
CNC(C)Cc1ccc(OC2OC(C(=O)O)C(O)C(O)C2O)c(OC)c1 (stereo not drawn) [S-HMMA glucuronide]	1.3
CN[C@@H](C)Cc1ccc(OS(=O)(=O)O)c(O)c1 [S-DHMA 4-sulfate]	0.32
CN[C@@H](C)Cc1ccc(OS(=O)(=O)O)c(OC)c1 [S-HMMA sulfate]	1.6
